Where do these numbers come from? They come from paper PMC6792352.

# methodSummary: in vitro
# protocolConditions: rat, gh3-tre-luc cells, AC50 (uM) modified / 1000, Tox21_110001=Tox21_301840; viability, 1 nM T3 present, 24 h
measuredEndpoint: CC50 at 24 h

[
  {
    "molecule": "CC1C(=O)C[C@]2(C(C)C)C[C@H]12 (single isomer, unassigned; (-)) [(-)-alpha,beta-Thujone]",
    "measuredEndpoint": "CC50 at 24 h",
    "valueReported": "> 80 µM"
  }
]

====

# methodSummary: in vitro
# protocolConditions: rat, gh3-tre-luc cells, AC50 (uM) modified / 1000, Tox21_110001=Tox21_302651; viability, 1 nM T3 present, 24 h

[
  {
    "molecule": "C=CC(=O)OCCCCO [4-Hydroxybutyl prop-2-enoate]",
    "CC50 at 24 h": "73.9 µM"
  }
]

====

# methodSummary: in vitro
# protocolConditions: rat, gh3-tre-luc cells, AC50 (uM) modified / 1000, Tox21_110001=Tox21_300606; viability, 1 nM T3 present, 24 h
measuredEndpoint: CC50 at 24 h

[
  {
    "molecule": "O=C(O)C(F)(F)C(F)(F)C(F)(F)C(F)(F)C(F)(F)C(F)(F)C(F)(F)C(F)(F)C(F)(F)C(F)(F)F [Perfluoroundecanoic acid]",
    "measuredEndpoint": "CC50 at 24 h",
    "valueReported": "> 90 µM"
  }
]

====

# methodSummary: in vitro
# protocolConditions: rat, gh3-tre-luc cells, AC50 (uM) modified / 1000, Tox21_110001=Tox21_112593; viability, 1 nM T3 present, 24 h
Counter-ions that a name gives are not always drawn.
measuredEndpoint: CC50 at 24 h

[
  {
    "molecule": "CCOC(=O)C1(c2ccccc2)CCN(CCC(C#N)(c2ccccc2)c2ccccc2)CC1 [Diphenoxylate hydrochloride]",
    "measuredEndpoint": "CC50 at 24 h",
    "valueReported": "> 50 µM"
  }
]

====

# methodSummary: in vitro
# protocolConditions: rat, gh3-tre-luc cells, AC50 (uM) modified / 1000, Tox21_110001=Tox21_112610; viability, 1 nM T3 present, 24 h

[
  {
    "smilesData": "CCOc1ccc2c3c1O[C@H]1[C@@H](O)C=C[C@H]4[C@@H](C2)N(C)CC[C@@]341",
    "CC50 at 24 h": "> 50 µM"
  }
]

====

# methodSummary: in vitro
# protocolConditions: rat, gh3-tre-luc cells, AC50 (uM) modified / 1000, Tox21_110001=Tox21_202151; viability, 1 nM T3 present, 24 h
measuredEndpoint: CC50 at 24 h

[
  {
    "smilesData": "CCN(N=O)C(N)=O",
    "valueReported": "> 90 µM"
  }
]

====

# methodSummary: in vitro
# protocolConditions: rat, gh3-tre-luc cells, AC50 (uM) modified / 1000
Structures can show the parent of a compound that is named as a salt.

[
  {
    "molecule": "CC(C)OC=O [Isopropyl formate]",
    "CC50 at 24 h": "> 100 µM"
  },
  {
    "molecule": "COC(=O)Nc1nc2ccc(C(=O)c3cccs3)cc2[nH]1",
    "CC50 at 24 h": "0.337 µM"
  },
  {
    "molecule": "O=C(O)c1cccc(C[C@@H]2COc3ccc(OCc4nc5cc(F)ccc5s4)cc3[C@@H]2O)c1",
    "CC50 at 24 h": "> 90 µM"
  },
  {
    "molecule": "CCCCCCCCC=O",
    "CC50 at 24 h": "> 90 µM"
  },
  {
    "molecule": "CCOC(=O)CC1(C)OCC(C)O1 (stereo not drawn)",
    "CC50 at 24 h": "> 90 µM"
  },
  {
    "molecule": "Nc1ccc(C(=O)NCC(=O)O)cc1",
    "CC50 at 24 h": "> 20 µM"
  }
]
